Exercise: for every item that follows, state its recorded CC50.
assay: NOVARTIS: Cytotoxicity against human hepatocellular carcinoma cell line (Huh7); assay type: toxicity, cell-based, Huh-7; details: Huh7 cells (hepatocellular carcinoma cell line)

Quick one: CC50 for CCOC(=O)C1=C(C)NC2=C(C(=O)C(C(=O)OCC)C(c3ccccc3OC)C2)C1c1ccc(OC)c(OC)c1 (stereo not given) ? > 100 µM

Quick one: CC50 for NC(=O)C1CCCN(C(=O)COC(c2ccccc2)c2cccnc2Cl)C1 (stereo not given) ? 45.6 µM

Quick one: CC50 for O=C(Nc1ccc(C2=NCCN2)cc1)c1ccc(NC(=O)c2ccc(C3=NCCN3)cc2)cc1 ? > 10 µM

Quick one: CC50 for O=[N+]([O-])c1cc(C(F)(F)F)ccc1N1CCCN(C(=S)Nc2ccccc2)CC1 ? > 100 µM

Quick one: CC50 for Oc1ccc(-c2cncc(NCc3ccc(Cl)cc3)c2)cc1 ? > 10 µM

* * *

test system: Plasmodium falciparum; assay: NOVARTIS: Inhibition of Plasmodium falciparum 3D7 (drug-susceptible) proliferation in erythrocyte-based infection assay; assay type: functional, organism-based; details: Plasmodium falciparum, 3D7
test readout: pEC50
// pEC50 is dimensionless: -log10 of concentration (M)

Quick one: pEC50 for Cc1ccn2c(NC(C)(C)CC(C)(C)C)c(-c3ccccc3OC(=O)c3cccc(Cl)c3)nc2c1 ? 6.37

Quick one: pEC50 for CCC(C)NC(=O)c1c[nH]c2ccc(S(=O)(=O)N(C)c3cc(C)ccc3C)cc2c1=O (stereo not drawn) ? 5.28

Quick one: pEC50 for Cc1oc2c(c1C(=O)N1CCC(C)CC1)C(=O)c1ccccc1C2=O ? 6.65

Quick one: pEC50 for CNc1nc(NN=Cc2cc([N+](=O)[O-])ccc2O)nc(Nc2cccc(C(F)(F)F)c2)n1 ? 5.73

Quick one: pEC50 for CC(=O)Nc1c(C)cc(Cl)cc1Cl ? 5.84

Quick one: pEC50 for Sc1nc2ccc3nsnc3c2[nH]1 ? 6.15

Quick one: pEC50 for N#CC(=Cc1cn(Cc2ccc(Cl)cc2Cl)c2ccccc12)c1nc2ccccc2[nH]1 ? 6.57

Quick one: pEC50 for O=[N+]([O-])c1ccc(S(=O)(=O)NCCCCNc2ccnc3cc(Cl)ccc23)cc1 ? 6.03

Quick one: pEC50 for CCn1c(SCc2ccc([N+](=O)[O-])cc2)nc2sc3c(c2c1=O)CCN(C)C3 ? 6.33

Quick one: pEC50 for COc1ccc(OC)c(C2CC(=O)N3CN(Cc4ccccc4)CSC3=C2C#N)c1 (stereo not drawn) ? 6.20

Quick one: pEC50 for Cc1ccc(F)cc1NC(=O)Cn1c2ccccc2c(=O)c2cc(Cl)ccc21 ? 5.93

* * *

assay: NOVARTIS: Cytotoxicity against human hepatocellular carcinoma cell line (Huh7); assay type: toxicity, cell-based, Huh-7; details: Huh7 cells (hepatocellular carcinoma cell line)
Exercise: for every item that follows, state its recorded CC50.

Quick one: CC50 for Oc1ccc(-c2ccc3c(c2)OCO3)cc1CNCC1(N2CCCCC2)CCCCC1 ? > 100 µM

Quick one: CC50 for CCNc1nc(NC(C)C)nc(NC(N)NOC)n1 (stereo not drawn) ? > 10 µM

Quick one: CC50 for CCOc1cc2c(cc1OCC)C(c1ccc(O)c(Cl)c1)NCC2 (stereo not drawn) ? > 97.9 µM

Quick one: CC50 for CNCC(O)c1ccc(Cl)c(Cl)c1 (stereo not drawn) ? > 10 µM

Quick one: CC50 for CN1CCCC1CCNCc1cc(-c2ccnc3cc(Cl)ccc23)ccc1O (stereo not drawn) ? 15.2 µM

Quick one: CC50 for O=C(CN1C(=O)c2ccccc2C1=O)Nc1cc(Cl)ccc1C(=O)O ? > 10 µM

Quick one: CC50 for COc1ccccc1C(=O)NC1CCN(CC(O)CN(Cc2ccccc2)S(=O)(=O)c2ccccc2)C1 (stereo not drawn) ? > 10 µM

Quick one: CC50 for Cc1nn(C(=O)NS(=O)(=O)c2ccccc2Cl)c(C)c1C ? > 10 µM

Quick one: CC50 for O=c1c2c3c(sc2[nH]c(=S)n1C1CCCCC1)CN(Cc1ccccc1)CC3 ? > 10 µM

Quick one: CC50 for Nc1ccc(Nc2ccc(N)cc2)cc1 ? > 10 µM

Quick one: CC50 for CCOc1ccc(C(=O)Nc2cccc(-c3nc4cc(C)ccc4o3)c2C)cc1 ? > 10 µM

Quick one: CC50 for CCOC(=O)c1cc(-c2ccc(OC)cc2)n(CCC(=O)NCc2ccc(OC)cc2)c1C ? > 100 µM

Quick one: CC50 for c1ccc2c(c1)[nH]c1c(NCCN3CCCCC3)ncnc12 ? 49.9 µM

* * *

tested on: Plasmodium falciparum; experiment: NOVARTIS: Inhibition of Plasmodium falciparum 3D7 (drug-susceptible) proliferation in erythrocyte-based infection assay; assay type: functional, organism-based; conditions: Plasmodium falciparum, 3D7
test readout: EC50

Quick one: EC50 for Cc1ccccc1/C=C1/SC(=Nc2ccccc2)NC1=O ? > 0.528 µM

Quick one: EC50 for CC1(C)C(=O)C2(CCCCC2)C(=O)OC1/C=C/c1ccccc1 (stereo unspecified) ? > 1.25 µM

Quick one: EC50 for CCN(CC)C(=O)c1cn(C2CCN(Cc3ccco3)CC2)nn1 ? > 1.25 µM

Quick one: EC50 for COCCNC(=O)[C@@H]1C[C@@H](NCCC2=C(C)CCCC2(C)C)CN1C(C)C ? > 12.5 µM

Quick one: EC50 for CCC(O)CN(c1ccccc1)c1ccccc1 (stereo unspecified) ? > 1.25 µM

Quick one: EC50 for Cn1nc(C(=O)NCc2ccccc2)c2c1CCN(Cc1cccc(O)c1)C2 ? > 6.5 µM

* * *

test system: Plasmodium falciparum; assay: NOVARTIS: Inhibition of Plasmodium falciparum W2 (drug-resistant) proliferation in erythrocyte-based infection assay; type: functional, organism-based; settings: Plasmodium falciparum, W2; read-out: EC50
Exercise: for every item that follows, state its recorded pEC50.
// pEC50 is dimensionless: -log10 of concentration (M)

Quick one: pEC50 for CCOc1cc(C2CC(=O)NC3=C2C(=O)CC(c2cc(OC)ccc2OC)C3)ccc1O (stereo unspecified) ? 6.91

Quick one: pEC50 for O=C1CC(C(=O)N2CCC(c3nc(-c4cccnc4)ncc3-c3ccccc3)CC2)c2ccccc21 (stereo unspecified) ? 6.82

Quick one: pEC50 for Cc1cccc(OCC(O)CN2CCN(CC(=O)c3ccc(Br)cc3)CC2)c1 (stereo unspecified) ? 6.05

Quick one: pEC50 for Oc1ccc(CN2CCCCC2)nc1-c1ccccc1 ? 7.06

Quick one: pEC50 for C=CC1(C)CC23CC(C(OC(=O)c4ccccc4)c4ccnc5ccccc45)N2CCC13 (stereo unspecified) ? 6.03

* * *

Exercise: for every item that follows, state its recorded CC50.
assay: NOVARTIS: Cytotoxicity against human hepatocellular carcinoma cell line (Huh7); assay type: toxicity, cell-based, Huh-7; conditions: Huh7 cells (hepatocellular carcinoma cell line)
# number only, unit µM dropped from output

Quick one: CC50 for CCOc1ccc2[nH]c3c(NCCCN4CCOCC4)ncnc3c2c1 ? 36.4

Quick one: CC50 for Cc1cc(Nc2ccc(Cl)cc2)nc(NCc2ccccc2)n1 ? 19.6

Quick one: CC50 for Cc1cc(Nc2cccc([N+](=O)[O-])c2)nc2cc(O)ccc12 ? 36.3

Quick one: CC50 for COc1ccc(NC(=O)c2cc3cc(C4(O)CCN(Cc5cc6ccccc6[nH]5)CC4)ccc3o2)cc1 ? 20.5

* * *

test: NOVARTIS: Cytotoxicity against human hepatocellular carcinoma cell line (Huh7); format: toxicity, cell-based, Huh-7; conditions: Huh7 cells (hepatocellular carcinoma cell line)
test readout: CC50

Quick one: CC50 for C=CC1CN2CCC1CC2[C@H](c1ccnc2ccccc12)S(=O)(=O)O (stereo partly specified) ? > 10 µM

Quick one: CC50 for COC(=O)C1C(=O)C2=C(CC1C)NC(=O)CC2c1ccc(Cl)cc1Cl (stereo unspecified) ? > 100 µM

Quick one: CC50 for Cc1ccc(S(=O)(=O)Oc2ccc(C=NN=C(N)N)cc2)cc1 ? 14.1 µM

Quick one: CC50 for O=C(NC1CC1)c1ccc(OC2CCN(CC3CCCCC3)CC2)c(Cl)c1 ? 22.6 µM

Quick one: CC50 for C=C[C@H]1CN2CC[C@H]1C[C@@H]2[C@@H](OC(=O)c1ccc(OC)cc1)c1ccnc2ccccc12 ? 2.61 µM

Quick one: CC50 for Oc1ccc(-c2ccccc2)cc1CNCCCN1CCOCC1 ? > 10 µM

Quick one: CC50 for N#Cc1ccc(NC(=O)CCCC(=O)O)cc1 ? > 10 µM

Quick one: CC50 for Cc1ccc2nc(C)cc(NCCCN(C)C)c2c1 ? > 3.62 µM

Quick one: CC50 for N#Cc1ccc(N2CCCN(C(=S)NC3CCCC3)CC2)nc1 ? > 100 µM

Quick one: CC50 for CCc1ccc(NC(=O)C2c3ccccc3C(=O)N(CC(C)C)C2c2cccs2)cc1 (stereo unspecified) ? > 100 µM

Quick one: CC50 for CCOC(=O)c1ccc(NC(=O)c2ccc3nc(NC(=O)c4ccc(C(=O)OC)cc4)sc3c2)cc1 ? > 100 µM

Quick one: CC50 for COC(=O)c1sc2nc(CN3CCC(C)CC3)ccc2c1NC(=O)c1ccc(C)s1 ? > 100 µM

Quick one: CC50 for COc1ccc(C2C(C(=O)Nc3ccc(OC)c(OC)c3)CCC(=O)N2c2ccc(OC)cc2)cc1 (stereo unspecified) ? > 10 µM

Quick one: CC50 for CCOc1ccccc1NC(=O)Cn1c(=O)n(Cc2ccccc2)c(=O)c2c(C)c(C(=O)N(C)C)sc21 ? > 100 µM

Quick one: CC50 for COc1ccc2[nH]c3ccccc3c(=O)c2c1 ? > 100 µM

Quick one: CC50 for CC(C)NCC(O)Cn1c2ccc(Cl)cc2c2cc(Cl)ccc21 (stereo unspecified) ? 4.87 µM
